System: HOP-92 NSCLC
Experiment: NCI-60 one-dose screen, 48 h (100 = growth as untreated, 0 = no growth, -100 = all killed)
Details: 10 µM unless noted
Procedure: Growth inhibition of the HOP-92 human Non-Small Cell Lung tumor cell line is measured as a screen for anti-cancer activity. Cells are grown in 96 well plates and exposed to the test compound for 48 hours. Compounds are tested at a single concentration, which is 10^-5 M for most compounds. The reported endpoint is percent growth (GI% or GIPRCNT), where numbers from 0 - 100% represent growth inhibition, and numbers from -100% - 0 represent cell death. […]
Compounds without any hit were thinned out: in the full panel of roughly 83,000, 20% have a hit.
Readout Label: growth (%)
Answers are plain numbers, in %.

Please review the following examples before continuing.
COc1ccccc1N(C(C)=O)C1=C(Cl)C(=O)c2ccccc2C1=O    -14.9
N#CC1=C(N)Oc2ccc3ccccc3c2C1c1ccc([N+](=O)[O-])cc1 (centres undefined)    121
Cc1cc(Nc2ccc(C(=O)N3CCCC3)cc2)nc(NCCCNc2ccnc3cc(Cl)ccc23)n1    90.5
N#Cc1cccc(C2C3=C(COC3=O)N(CCO)c3cc4c(cc32)OCO4)c1 (centres undefined)    42.4
COc1ccc(Nc2ncccc2/C=C/C(=O)c2cc(OC)c(OC)c(OC)c2)cc1    -33.8

# return growth for each item in the list
1. CC1(C)OB(O)c2cc(-c3nc4ccc5[nH]ncc5c4c4c3CCCC4)ccc21
2. CCNC(=O)Oc1ccc(/C(=C(/C)Cc2ccc(OC)cc2)c2ccc(OCCN3CCCCC3)cc2)cc1
3. CCN1C(=O)N(CC)C2C1NN=c1s/c(=C\c3ccc(C(F)(F)F)cc3)c(=O)n12 (centres undefined)

Ans.
[73.9, 44.4, 34.8]

Qu. May I ask what growth has been recorded for COC(=O)CC[C@@H]1O[C@@H](c2ccc(F)cc2)[C@@H](O)[C@H]1O ?
Ans. 93.9
